From: patent US20150203517A1

Test: Saline solubility at 1.00 mg/mL and 0.50 mg/mL (with pH by indicator paper)
Format: physicochemical
Details: saline or isotonic, thermodynamic from solid, 1.00 mg/mL as hydroxamate 1, shaken 1 hour, centrifuged, soluble = no precipitate formed, read-out: Soluble at 1.00 mg/mL of MGCD290 (Y/N)
# solubility at 1 h per entry

Worked examples follow.
* COCCOCCOCCOCCOCCOCC(=O)N1CCC(C(=O)ONC(=O)Cc2ccc(CCCCc3ccccc3)cc2)CC1 [Compound 120] | > 1000 µg/mL
* COCCOCCOCC(=O)NCCN(CC(=O)NCCC(=O)ONC(=O)Cc1ccc(CCCCc2ccccc2)cc1)C(=O)COCCOCCOC [Compound 136] | < 1000 µg/mL
* COCCOCCOCCOCCOCC(=O)NCCCC[C@H](NC(=O)COCCOCCOCCOCCOC)C(=O)NCCCC(=O)ONC(=O)Cc1ccc(CCCCc2ccccc2)cc1 [Compound 102] | > 1000 µg/mL
* Cl.O=C(Cc1ccc(CCCCc2ccccc2)cc1)NOC(=O)COC1CCNCC1 [Compound 125] | < 1000 µg/mL
* COCCOCCOCC(=O)NCCCC[C@H](NC(=O)COCCOCCOC)C(=O)NC[C@H](C)C(=O)ONC(=O)Cc1ccc(CCCCc2ccccc2)cc1 [Compound 91] | > 1000 µg/mL

Incoming: Give solubility at 1 h for COCCOCC(=O)NCCCC[C@H](NC(=O)COCCOC)C(=O)NCC1(C(=O)ONC(=O)Cc2ccc(CCCCc3ccccc3)cc2)CC1 [Compound 161]
Outgoing: < 1000 µg/mL

Incoming: Give solubility at 1 h for COCCOCCOCCOCCOCC(=O)NC[C@H](C)C(=O)ONC(=O)Cc1ccc(CCCCc2ccccc2)cc1 [Compound 87]
Outgoing: < 1000 µg/mL

Incoming: Give solubility at 1 h for COCCOCCOCC(=O)NC[C@H](NC(=O)COCCOCCOC)C(=O)NCCC(=O)ONC(=O)Cc1ccc(CCCCc2ccccc2)cc1 [Compound 143]
Outgoing: < 1000 µg/mL

Incoming: Give solubility at 1 h for COCCOCCOCC(=O)NCC[C@H](NC(=O)COCCOCCOC)C(=O)NCCC(=O)ONC(=O)Cc1ccc(CCCCc2ccccc2)cc1 [Compound 147]
Outgoing: < 1000 µg/mL

Incoming: Give solubility at 1 h for COCCOCCOCC(=O)N1CCC(CC(=O)ONC(=O)Cc2ccc(CCCCc3ccccc3)cc2)CC1 [Compound 115]
Outgoing: < 1000 µg/mL

Incoming: Give solubility at 1 h for COCCOCC(=O)NCCCC[C@H](NC(=O)COCCOC)C(=O)NCCC(=O)ONC(=O)Cc1ccc(CCCCc2ccccc2)cc1 [Compound 68]
Outgoing: > 1000 µg/mL

Incoming: Give solubility at 1 h for COCCOCCOCCOCCOCCOCC(=O)N1CCN(C(=O)ONC(=O)Cc2ccc(CCCCc3ccccc3)cc2)CC1 [Compound 82]
Outgoing: > 1000 µg/mL

Incoming: Give solubility at 1 h for COCCOCC(=O)NC[C@H](NC(=O)COCCOC)C(=O)NCCC(=O)ONC(=O)Cc1ccc(CCCCc2ccccc2)cc1 [Compound 145]
Outgoing: < 1000 µg/mL

Incoming: Give solubility at 1 h for COCCOCCOCCNC(=O)NCCC(=O)NCC1(C(=O)ONC(=O)Cc2ccc(CCCCc3ccccc3)cc2)CC1 [Compound 79]
Outgoing: < 1000 µg/mL

Incoming: Give solubility at 1 h for COCCOCCOCCOCCOCCOCC(=O)NCCCC[C@H](NC(=O)COCCOCCOCCOCCOCCOC)C(=O)NCCCC(=O)ONC(=O)Cc1ccc(CCCCc2ccccc2)cc1 [Compound 103]
Outgoing: > 1000 µg/mL

Incoming: Give solubility at 1 h for COCCOCCOCCOCCOCCOCC(=O)N1CCC(CC(=O)ONC(=O)Cc2ccc(CCCCc3ccccc3)cc2)CC1 [Compound 117]
Outgoing: > 1000 µg/mL

Incoming: Give solubility at 1 h for CN1CCN(C(=O)ONC(=O)Cc2ccc(CCCCc3ccccc3)cc2)CC1.Cl [Compound 45]
Outgoing: < 1000 µg/mL

Incoming: Give solubility at 1 h for COC(=O)NCCCC[C@H](NC(=O)OC)C(=O)NCCC(=O)ONC(=O)Cc1ccc(CCCCc2ccccc2)cc1 [Compound 155]
Outgoing: < 1000 µg/mL

Incoming: Give solubility at 1 h for O=C1COCCOCC(=O)N[C@H](C(=O)NCCC(=O)ONC(=O)Cc2ccc(CCCCc3ccccc3)cc2)CCCCN1 [Compound 83]
Outgoing: < 1000 µg/mL

Incoming: Give solubility at 1 h for CCNC(=O)ONC(=O)Cc1ccc(CCCCc2ccccc2)cc1 [Compound 74]
Outgoing: < 1000 µg/mL

Incoming: Give solubility at 1 h for Cl.O=C(Cc1ccc(CCCCc2ccccc2)cc1)NOC(=O)CC1CCNCC1 [Compound 114]
Outgoing: < 1000 µg/mL

* * *

Assay: Saline solubility at 1.00 mg/mL and 0.50 mg/mL (with pH by indicator paper)
Assay type: physicochemical
Details: saline or isotonic, thermodynamic from solid, 1.00 mg/mL as hydroxamate 1, shaken 1 hour, centrifuged, soluble = no precipitate formed, read-out: Soluble at 1.00 mg/mL of MGCD290 (Y/N)
quantity: solubility at 1 h

Worked examples follow.
* CCC(=O)ONC(=O)Cc1ccc(CCCCc2ccccc2)cc1 [Compound 52E] | < 1000 µg/mL
* COCC(=O)NCCCC[C@H](NC(=O)COC)C(=O)NCCC(=O)ONC(=O)Cc1ccc(CCCCc2ccccc2)cc1 | < 1000 µg/mL

Incoming: Give solubility at 1 h for COCCOCCOCCOCCOCC(=O)N[C@@H](C)CC(=O)ONC(=O)Cc1ccc(CCCCc2ccccc2)cc1
Outgoing: < 1000 µg/mL

Incoming: Give solubility at 1 h for COCCOCCOCCOCCOCCOCC(=O)NCC1(C(=O)ONC(=O)Cc2ccc(CCCCc3ccccc3)cc2)CC1
Outgoing: < 1000 µg/mL

Incoming: Give solubility at 1 h for COCCOCCOCC(=O)N1CCC(CCC(=O)ONC(=O)Cc2ccc(CCCCc3ccccc3)cc2)CC1
Outgoing: < 1000 µg/mL

Incoming: Give solubility at 1 h for COCCOCCOCC(=O)N1CC(CCCC(=O)ONC(=O)Cc2ccc(CCCCc3ccccc3)cc2)C1 [Compound 128B]
Outgoing: < 1000 µg/mL

Incoming: Give solubility at 1 h for COCCOCCOCC(=O)NCCCC[C@H](NC(=O)COCCOCCOC)C(=O)ONC(=O)Cc1ccc(CCCCc2ccccc2)cc1
Outgoing: < 1000 µg/mL

* * *

# pH at 1.00 mg/mL of MGCD290 in saline per entry
Assay: Saline solubility at 1.00 mg/mL and 0.50 mg/mL (with pH by indicator paper)
Assay type: physicochemical
Conditions: final concentration of hydroxamate 1 1.00 mg/mL, pH indicator paper
Procedure: Assays were performed to determine the saline solubility at 1.00 and 0.50 mg/ml and the stability of certain of the prodrug compounds of Examples 1-111. The following procedures were used. Step 1. Sample preparation. […] The pH was measured with pH indicator paper. […] The vial was shaken on a Vortex apparatus, injected into the HPLC instrument (UV detection, zero time point) and the retention time and purity of the sample compound were determined. […]
Counter-ions that a name gives are not always drawn.

Worked examples follow.
• COC(=O)NCCCC[C@H](NC(=O)OC)C(=O)NCCC(=O)ONC(=O)Cc1ccc(CCCCc2ccccc2)cc1 [Compound 155] = 4.5-5
• COCCOCC(=O)NCCCC[C@H](NC(=O)COCCOC)C(=O)N1CCC[C@H]1C(=O)ONC(=O)Cc1ccc(CCCCc2ccccc2)cc1 [Compound 108] = 4.5-5
• COCCOCCOCCOCCOCCOCC(=O)N1CCC(CC(=O)ONC(=O)Cc2ccc(CCCCc3ccccc3)cc2)CC1 [Compound 117] = 4.5-5
• NCCNCC(=O)NCCCC(=O)ONC(=O)Cc1ccc(CCCCc2ccccc2)cc1 [Compound 133, dihydrochloride] = 4.5-5
• COCC(=O)NCCCC[C@H](NC(=O)COC)C(=O)NCCC(=O)ONC(=O)Cc1ccc(CCCCc2ccccc2)cc1 [Compound 67] = 4.5-5
• CC(C)OC(=O)ONC(=O)Cc1ccc(CCCCc2ccccc2)cc1 [Compound 76] = 4.5-5
• COCCOCC(=O)NCCC[C@H](NC(=O)COCCOC)C(=O)NCCC(=O)ONC(=O)Cc1ccc(CCCCc2ccccc2)cc1 [Compound 158] = 4.5-5
• Cl.O=C(Cc1ccc(CCCCc2ccccc2)cc1)NOC(=O)CCCC1CCNCC1 [Compound 121] = 5.-5.5
• COCCOCCOCC(=O)N1CCN(C(=O)CCC(=O)ONC(=O)Cc2ccc(CCCCc3ccccc3)cc2)CC1 [Compound 124] = 5-5.5
• CC(=O)OCC(=O)NCC[C@H](NC(=O)COC(C)=O)C(=O)NCCC(=O)ONC(=O)Cc1ccc(CCCCc2ccccc2)cc1 [Compound 151] = 4.5-5

Incoming: Give pH at 1.00 mg/mL of MGCD290 in saline for COCCOCC(=O)NCCCC[C@H](NC(=O)COCCOC)C(=O)NCCCC(=O)ONC(=O)Cc1ccc(CCCCc2ccccc2)cc1 [Compound 100]
Outgoing: 4.5-5

Incoming: Give pH at 1.00 mg/mL of MGCD290 in saline for COCCOCCOCC(=O)NCCCC[C@H](NC(=O)COCCOCCOC)C(=O)NC[C@H](C)C(=O)ONC(=O)Cc1ccc(CCCCc2ccccc2)cc1 [Compound 91]
Outgoing: 4.5-5

Incoming: Give pH at 1.00 mg/mL of MGCD290 in saline for Cl.O=C(Cc1ccc(CCCCc2ccccc2)cc1)NOC(=O)CC1CCNCC1 [Compound 114]
Outgoing: 4-4.5

Incoming: Give pH at 1.00 mg/mL of MGCD290 in saline for NCC1(C(=O)ONC(=O)Cc2ccc(CCCCc3ccccc3)cc2)CC1 [Compound 54]
Outgoing: 4-4.5

Incoming: Give pH at 1.00 mg/mL of MGCD290 in saline for COCCOCC(=O)NCCCC[C@H](NC(=O)COCCOC)C(=O)NCC1(C(=O)ONC(=O)Cc2ccc(CCCCc3ccccc3)cc2)CC1 [Compound 161]
Outgoing: 4.5-5

Incoming: Give pH at 1.00 mg/mL of MGCD290 in saline for NCCCC[C@H](N)C(=O)NCCC(=O)ONC(=O)Cc1ccc(CCCCc2ccccc2)cc1 [Compound 14, di-hydrochloride]
Outgoing: 4-4.5

Incoming: Give pH at 1.00 mg/mL of MGCD290 in saline for Cl.O=C(Cc1ccc(CCCCc2ccccc2)cc1)NOC(=O)C1CCNCC1 [Compound 118]
Outgoing: 4-4.5

Incoming: Give pH at 1.00 mg/mL of MGCD290 in saline for CN1CCN(C(=O)ONC(=O)Cc2ccc(CCCCc3ccccc3)cc2)CC1.Cl [Compound 45]
Outgoing: 4-4.5
